Listing of recorded IC50 by entry.
- System: PSA
- Experiment Summary: Secreted PSA protein level (immunoassay), LAPC-4
- Type: cell-based, human
- Experimental Context: Homo sapiens, LAPC4, 144 h; LAPC-4 cells; secreted PSA in spent medium, treated 6 days
Observed Property: IC50 (µM)

INSERT INTO assay_data (compound, relation_qualifier, assay_value) VALUES
  ('CC(C(=O)O)c1cccc(C(=O)c2ccccc2)c1 (stereo not drawn)', '>', 300),
  ('CC(C(=O)O)c1ccc(-c2ccccc2)c(F)c1 (stereo not drawn)', '=', 234),
  ('COc1ccc2c(c1)c(CC(=O)O)c(C)n2C(=O)c1ccc(Cl)cc1', '=', 203),
  ('CC(=O)Oc1ccccc1C(=O)O', '>', 1000),
  ('CC(C)Cc1ccc(C(C)C(=O)O)cc1 (stereo not drawn)', '=', 870),
  ('CC1=C(CC(=O)O)c2cc(F)ccc2/C1=C\c1ccc([S+](C)[O-])cc1 (stereo not drawn)', '>', 300),
  ('Cc1ccc(-c2cc(C(F)(F)F)nn2-c2ccc(S(N)(=O)=O)cc2)cc1', '=', 28.7),
  ('CS(=O)(=O)Nc1ccc([N+](=O)[O-])cc1Oc1ccccc1 [Nimesulide]', '=', 76.5),
  ('Cc1cnc(NC(=O)C2=C(O)c3ccccc3S(=O)(=O)N2C)s1', '>', 300);
